conditions: % Viability non-Wnt responsive cells
Where a SMILES comes first, the peptide text is derived from it.
Form field: viability (one value per entry).
Write the answer as a number in %, unit excluded.

Recorded viability, per entry:
{"columns": ["compound", "meas value"],
 "data": [
  ["CC[C@H](C)[C@H](NC(=O)[C@H](CC(C)C)NC(=O)[C@H](Cc1ccccc1)NC(=O)[C@H](Cc1c[nH]c2ccccc12)NC(=O)[C@H](Cc1c[nH]c2ccccc12)NC(=O)[C@H](CCCNC(=N)N)NC(=O)[C@H](CO)NC(=O)[C@@H](N)Cc1c[nH]c2ccccc12)C(=O)N[C@@H](CO)C(=O)N[C@@H](Cc1ccccc1)C(=O)N[C@@H](Cc1c[nH]c2ccccc12)C(N)=O [compound 92] (H-WSRWWFLISFW-NH2)", 87.8],
  ["CC[C@H](C)[C@@H]1NC(=O)[C@H](CC(C)C)NC(=O)[C@H](Cc2ccccc2)NC(=O)[C@H](Cc2c[nH]c3ccccc23)NC(=O)[C@H](CCSC)NC(=O)CCCNC(=O)C[C@@H](C(=O)O)NC(=O)[C@H](Cc2c[nH]c3ccccc23)NC(=O)[C@H](C)NC(=O)[C@H](CS)NC1=O [compound 191] (HELM PEPTIDE1{[O=C(CCCN[*:1])[*:2]].M.W.F.L.I.C.A.W.D}$PEPTIDE1,PEPTIDE1,1:R1-10:R3$$$V2.0)", 99.1],
  ["CC[C@H](C)[C@@H]1NC(=O)[C@H](CC(C)C)NC(=O)[C@H](Cc2ccccc2)NC(=O)[C@H](Cc2c[nH]c3ccccc23)NC(=O)[C@@H](N)CCCCNC(=O)CNC(=O)C[C@@H](C(=O)O)NC(=O)[C@H](Cc2c[nH]c3ccccc23)NC(=O)[C@H](C)NC(=O)[C@H](CS)NC1=O [compound 207] (HELM PEPTIDE1{K.W.F.L.I.C.A.W.[O=C(O)[C@H](CC(=O)[*:2])N[*:1]].G}$PEPTIDE1,PEPTIDE1,1:R3-10:R2$$$V2.0)", 107],
  ["CC[C@H](C)[C@H](NC(=O)[C@H](CC(C)C)NC(=O)[C@H](Cc1ccccc1)NC(=O)[C@H](Cc1c[nH]c2ccccc12)NC(=O)[C@@H](N)CCSC)C(=O)N[C@@H](CCCCN)C(=O)N[C@@H](Cc1ccccc1)C(=O)N[C@@H](Cc1ccc(O)cc1)C(=O)NCC(=O)O [compound 151] (H-MWFLIKFYG-OH)", 107]
]}

Query: Which viability value is on record for CC[C@H](C)[C@@H]1NC(=O)[C@H](CC(C)C)NC(=O)[C@H]([C@@H](C)CC)NC(=O)[C@H](Cc2c[nH]c3ccccc23)NC(=O)[C@H](CCSC)NC(=O)[C@@H](N)CCCCNC(=O)CNC(=O)[C@H](Cc2c[nH]c3ccccc23)NC(=O)[C@H](Cc2ccccc2)NC(=O)[C@H](CO)NC1=O [compound 71] (HELM PEPTIDE1{K.M.W.I.L.I.S.F.W.G}$PEPTIDE1,PEPTIDE1,1:R3-10:R2$$$V2.0) ?
Reply: 93.7

----------
Molecular target: β-catenin (Homo sapiens)
Sequence (P35222 1-781): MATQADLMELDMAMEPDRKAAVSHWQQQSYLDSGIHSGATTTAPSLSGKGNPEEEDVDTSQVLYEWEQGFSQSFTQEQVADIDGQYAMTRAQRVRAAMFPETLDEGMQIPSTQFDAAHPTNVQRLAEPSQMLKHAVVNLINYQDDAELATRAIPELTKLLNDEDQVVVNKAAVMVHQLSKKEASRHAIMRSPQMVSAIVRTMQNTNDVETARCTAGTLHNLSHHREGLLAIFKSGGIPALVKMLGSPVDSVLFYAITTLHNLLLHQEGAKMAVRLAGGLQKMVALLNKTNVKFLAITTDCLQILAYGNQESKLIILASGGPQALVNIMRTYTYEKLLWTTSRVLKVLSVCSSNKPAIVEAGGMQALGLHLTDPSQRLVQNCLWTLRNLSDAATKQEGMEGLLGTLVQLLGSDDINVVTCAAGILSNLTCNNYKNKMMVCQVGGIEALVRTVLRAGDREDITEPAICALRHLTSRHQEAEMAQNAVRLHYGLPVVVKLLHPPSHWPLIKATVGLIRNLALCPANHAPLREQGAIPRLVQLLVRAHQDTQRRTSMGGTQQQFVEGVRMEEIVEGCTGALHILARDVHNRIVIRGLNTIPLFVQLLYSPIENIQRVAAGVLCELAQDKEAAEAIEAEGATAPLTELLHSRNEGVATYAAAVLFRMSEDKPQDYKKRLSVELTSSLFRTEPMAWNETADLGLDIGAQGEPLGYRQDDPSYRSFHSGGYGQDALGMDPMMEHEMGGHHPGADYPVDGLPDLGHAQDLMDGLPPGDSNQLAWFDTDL
Assay: KD50 measurement using competitive fluorescence polarization (FP) with labelled TCF4
Type: binding
Conditions: fluorescence polarization, β-catenin; read-out: β-Cat FP KD
Where a SMILES comes first, the peptide text is derived from it.
value kind: Kd

Recorded Kd, per entry:
{"columns": ["compound", "Kd"],
 "data": [
  ["CC[C@H](C)[C@H](NC(=O)[C@H](CC(C)C)NC(=O)[C@H](Cc1ccccc1)NC(=O)[C@H](Cc1c[nH]c2ccccc12)NC(=O)[C@H](CCSC)NC(=O)[C@H](CCCNC(=N)N)NC(=O)[C@H](CO)NC(=O)[C@@H](N)CCSC)C(=O)N[C@@H](CO)C(=O)N[C@@H](Cc1ccccc1)C(=O)N[C@@H](Cc1c[nH]c2ccccc12)C(=O)N[C@@H](CCSC)C(=O)NCC(=O)O [compound 14] (H-MSRMWFLISFWMG-OH)", "> 30 µM"],
  ["CC[C@H](C)[C@@H]1NC(=O)[C@H](CC(C)C)NC(=O)[C@H](Cc2ccccc2)NC(=O)[C@H](Cc2c[nH]c3ccccc23)NC(=O)[C@@H](N)CCCCNC(=O)CNC(=O)CC[C@@H](C(=O)NCC(=O)O)NC(=O)[C@H](Cc2c[nH]c3ccccc23)NC(=O)[C@H](Cc2ccccc2)NC(=O)[C@H](CS)NC1=O [compound 174] (HELM PEPTIDE1{K.W.F.L.I.C.F.W.E.G}|CHEM1{[O=C(CN[*:2])[*:1]]}$PEPTIDE1,CHEM1,1:R3-1:R1|PEPTIDE1,CHEM1,9:R3-1:R2$$$V2.0)", "1 to 10 µM"],
  ["CC[C@H](C)[C@@H]1NC(=O)[C@H](CC(C)C)NC(=O)[C@H](Cc2ccccc2)NC(=O)[C@H](Cc2c[nH]c3ccccc23)NC(=O)[C@@H](NC(C)=O)CCCCNC(=O)CC[C@@H](C(=O)O)NC(=O)[C@H](Cc2c[nH]c3ccccc23)NC(=O)[C@H](Cc2ccccc2)NC(=O)[C@H](CS)NC1=O [compound 185] (HELM PEPTIDE1{[ac].K.W.F.L.I.C.F.W.E}$PEPTIDE1,PEPTIDE1,2:R3-10:R3$$$V2.0)", "< 0.4 µM"],
  ["CC[C@H](C)[C@H](NC(=O)[C@H](CC(C)C)NC(=O)[C@H](Cc1ccc(O)cc1)NC(=O)[C@H](Cc1c[nH]c2ccccc12)NC(=O)[C@H](CCSC)NC(=O)[C@H](CCCNC(=N)N)NC(=O)[C@H](CO)NC(=O)[C@@H](N)CCSC)C(=O)N[C@@H](CO)C(=O)N[C@@H](Cc1ccccc1)C(=O)N[C@@H](Cc1c[nH]c2ccccc12)C(=O)NCC(=O)O [compound 66] (H-MSRMWYLISFWG-OH)", "10 to 30 µM"]
]}

Query: Which Kd value is on record for CC[C@H](C)[C@H](NC(=O)[C@H](CC(C)C)NC(=O)[C@H](CC1CCCCC1)NC(=O)[C@H](Cc1c[nH]c2ccccc12)NC(=O)[C@H](CCSC)NC(C)=O)C(=O)N[C@@H](CO)C(=O)N[C@@H](Cc1ccccc1)C(=O)N[C@@H](Cc1c[nH]c2ccccc12)C(=O)NCC(=O)O [compound 216] (HELM PEPTIDE1{[ac].M.W.[Cha].L.I.S.F.W.G}$$$$V2.0) ?
Reply: 0.4 to 1 µM
